- study_system: Human Siglec-9-Fc (recombinant human Siglec-9 extracellular domain Q18-G348 fused to human IgG1 Fc) (human)
- Sequence (chain, as listed by the source limits assumed): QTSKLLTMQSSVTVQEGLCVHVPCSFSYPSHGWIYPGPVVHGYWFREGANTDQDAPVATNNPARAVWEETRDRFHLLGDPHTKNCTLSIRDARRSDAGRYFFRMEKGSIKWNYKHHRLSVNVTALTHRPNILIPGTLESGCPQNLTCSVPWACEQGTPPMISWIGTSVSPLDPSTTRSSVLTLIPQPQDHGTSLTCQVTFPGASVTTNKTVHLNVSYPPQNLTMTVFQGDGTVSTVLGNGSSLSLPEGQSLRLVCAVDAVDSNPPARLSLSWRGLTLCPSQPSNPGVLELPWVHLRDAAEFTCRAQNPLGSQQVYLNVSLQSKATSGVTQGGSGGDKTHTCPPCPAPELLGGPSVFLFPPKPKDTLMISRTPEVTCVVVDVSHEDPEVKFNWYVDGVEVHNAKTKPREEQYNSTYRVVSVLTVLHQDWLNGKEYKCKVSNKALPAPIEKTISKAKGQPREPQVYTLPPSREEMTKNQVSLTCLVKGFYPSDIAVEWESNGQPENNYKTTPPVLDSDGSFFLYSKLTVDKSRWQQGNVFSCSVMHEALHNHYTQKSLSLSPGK
- experimental_protocol: BLI binning, hSiglec-9-Fc on AHC sensor; competitor bound first (row): 12P18
Readings of maximum binding nm shift for the listed binders
Report the value in nm with no unit label.

[
  {
    "binder": "12L19 (antibody, V domains shown) VH: QVTLKESGPGILQPSQTLSLTCSFSGFSLNTFGMAVGWIRQPSGKGLEWLAHIWWDDSYYFNPALRSRLTISKDTSKNQVFLTIANVDTADTATYYCTRIPDDYDDYAMDYWGQGTSVTVSS VL: DVVMTQTPLSLPVSLGDQASISCRSSQSLVHSNGNTYLHWYLQKPGQSPKLLVYKVSNRFSGVPDRFSGSGSGTDFTLKISRVEAEDLGVYFCSQNTHIPYTFGGGTKLEIK",
    "quantity": "maximum binding nm shift",
    "measured_number": 0.379
  }
]

The binder listed as 13O18 (antibody, V domains shown) VH: EVQLQQSGPELVRPGASVKMSCKASGYTFTDYNMHWVKQSHGKSLEWIGYINPNNGGTTYNQNFKGKATLTVNKSSSTAYMELRSLTSEDSAVYYCAREGYGNYPFYWGQGTTLTVSS VL: DIVLTQSPASLAVSLGQRVTISCRASESVEYYGTSLMQWYQQKPGQPPKLLIYAASNVESGVPARFSGSGSGTDFSLNIHPVEEDDIAMFFCQQDRKVPYTFGGGTKLEIK has a reported maximum binding nm shift of 0.228

The binder listed as 12G23 (antibody, V domains shown) VH: EVQLQQSGPELVRPGASVKMSCKASGYTFTDYNMHWVKQSHGKSLEWIGYINPNNGGTSYNQKFKGKATLTVNKSSSTAYMELRSLTSDDSAVYYCAREGYGNYPFYWGQGTTLTVSS VL: DIVLTQSPASLAVSLGQRVTISCRGSESVEYYGTSLMQWYQQKPGQPPKLLIYAASNVESGVPARFSGSGSGTDFSLNIHPVEEDDIAMYFCQQDRKVPYTFGGGTKLEIK has a reported maximum binding nm shift of 0.231

The binder listed as 9D21 (antibody, V domains shown) VH: QVQLKESGPGLVAPSQSLSITCTVSGFSLTRYGVSWVRQPPGKGLEWLGVIWGDGSTNYHSALISRLSISKDNSKSQVFLKLNSLQTDDTATYYCARPYYGFFDYWGQGTTLTVSS VL: SIVMTQTPKFLLVSAGDRVTITCKASQSVSNAVAWYQQKPGQSPKMLIYYASNRYTGVPDRFTGSGYGTDFTFTISTVQAEDLAVYFCQQDYSSPYTFGGGTKLEIK has a reported maximum binding nm shift of 0.658
